# system.name: T1, human CCR5 receptor (hCCR5) (human, UniProt P51681 1-352)
# T1 construct: whole, on cells; also called synCCR5; chemokine co-receptor CCR5
# assay.protocol: inhibition of gp120CM235/sCD4 binding to GHOST CD4.CCR5 cells (FIG. 4C)
pIC50: −log10 of the molar value.

binder	pIC50
MIP-1β (ligand, also called MIP-β) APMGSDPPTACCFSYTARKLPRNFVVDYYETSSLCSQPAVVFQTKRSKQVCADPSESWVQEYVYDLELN	9.37
